# Experimental target: Mannose-6-phosphate isomerase (Homo sapiens) (UniProt P34949)
# Sequence (P34949 whole entry, looked up): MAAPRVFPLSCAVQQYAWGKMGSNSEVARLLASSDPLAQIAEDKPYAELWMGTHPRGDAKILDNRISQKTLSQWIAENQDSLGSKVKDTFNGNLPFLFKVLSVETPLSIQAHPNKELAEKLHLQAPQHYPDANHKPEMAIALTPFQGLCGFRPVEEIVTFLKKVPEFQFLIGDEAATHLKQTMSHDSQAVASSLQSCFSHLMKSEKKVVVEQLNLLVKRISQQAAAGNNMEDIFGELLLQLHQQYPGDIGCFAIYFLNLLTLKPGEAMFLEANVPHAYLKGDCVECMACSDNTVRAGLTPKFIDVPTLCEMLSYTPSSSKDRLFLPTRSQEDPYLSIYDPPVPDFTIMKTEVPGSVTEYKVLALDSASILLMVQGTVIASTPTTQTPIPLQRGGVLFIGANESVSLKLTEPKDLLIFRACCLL
# Procedure summary: MPI inhibition at elevated mannose 6-phosphate – biochemical, fluorescence intensity, high mannose 6-phosphate, primary screen (AID 1220)
# Condition description: recombinant PMI enzyme, coupled fluorescence intensity; at 20 µM
About 1,300 (0.68%) of roughly 190,000 compounds were called active. Cut-off read from the data, not from the text of the source: active = inhibition above about 50%; inactive = the rest. The list comes from a sample in which actives are over-represented; it also holds close analogues and randomly drawn compounds.
Response enum: 1.0 = active, 0.0 = inactive

*Q* Short answer needed: outcome of this test for O=C(O)C1=C[C@H](c2ccccc2)C[C@H](OCc2ccc(CO)cc2)O1 ?
*A* 0.0

*Q* Hello, I am checking results. What call was entered for NC(=O)C1=C[C@@H](c2ccc(C(F)(F)F)cc2)C[C@@H](OCc2ccc(CO)cc2)O1 ?
*A* 1.0

*Q* Write down the call the test reported for this molecule. Item: COc1ccc(NS(=O)(=O)c2cc(NC(=O)Cn3cnc4c3c(=O)n(C)c(=O)n4C)ccc2C)cc1
*A* 0.0

*Q* Field: outcome | Entry: CC1CCN(S(=O)(=O)Cc2ccccc2Cl)CC1
*A* 1.0

*Q* What did the test return for C=CCOC(=O)C1=C[C@@H](c2ccccc2)C[C@@H](OCc2ccc(CO)cc2)O1 ?
*A* 0.0

*Q* State the result this test recorded for CCOC(=O)N1CCN(c2c(NCC3CCN(Cc4cccc(C)c4)CC3)c(=O)c2=O)CC1 .
*A* 0.0

*Q* Write down the call the test reported for this molecule. Item: Cc1cc(C)c(S(=O)(=O)n2nc(C)c(Br)c2C)c(C)c1
*A* 0.0

*Q* Recorded test outcome, item O=C(Nc1ccccc1)C1=C[C@H](c2ccccc2)C[C@H](OCc2ccc(CO)cc2)O1
*A* 0.0

*Q* Can you look up the reported call for O=S(=O)(Cc1ccccc1Cl)N1CCCCC1 for me?
*A* 0.0

*Q* Tell me the assay call for O=C(O)C1=C[C@@H](c2ccc(Br)cc2)C[C@@H](OCc2ccc(CO)cc2)O1 please.
*A* 0.0

* * *

# Experimental target: Mannose-6-phosphate isomerase (Homo sapiens)
# Procedure summary: MPI inhibition at elevated mannose 6-phosphate – biochemical, fluorescence intensity, high mannose 6-phosphate, primary screen (AID 1220)
# Condition description: recombinant PMI enzyme, coupled fluorescence intensity; at 20 µM; active compounds read high
Hit rate of the full screen: of about 190,000 compounds, about 1,300 (0.68%) were called active. For the sample, actives were picked, then their nearest neighbours and some compounds at random.
Endpoint: inhibition (%)
Field format: number, assumed %, no unit text.

*Q* I am curious: what inhibition value has been reported for COc1ccc(C(=O)Cn2c(Br)nc3c2c(=O)n(C)c(=O)n3C)cc1 ?
*A* -3

*Q* For the molecule shown here, C=CCN1C(=O)c2cccc3c(Br)ccc(c23)C1=O , give the reported inhibition.
*A* 4.2

*Q* Looking for the measured inhibition of COc1ccc(S(=O)(=O)N2CCOC2CNC(=O)C(=O)NCCc2ccc(OC)c(OC)c2)cc1 (stereo unspecified) , can you help?
*A* -0.2

*Q* Any idea what its inhibition is? The molecule is Nc1ccccc1C(=O)N(Cc1ccccc1)Cc1ccccc1
*A* -1.7

*Q* Param item = O=C(c1ccc(Cl)nc1)N1CCc2ccccc2C1 ; retrieve measured inhibition.
*A* 5.7

*Q* Fill in: inhibition of CCOC(=O)C1=C(C)NC(=O)NC1c1ccc(N(CC)CC)cc1 (stereo unspecified) is ___
*A* 25.8

*Q* I would be grateful if you could share the reported inhibition for O=C(Cn1c2c(sc1=O)C1c3ccccc3OCC1CS2)Nc1ccc(Cl)cc1 (stereo unspecified) .
*A* 8.7

*Q* // lookup inhibition for CCCn1nnc(NC(=O)c2ccc(OCC)c(Cl)c2)n1
*A* 2

*Q* Can you look up the measured inhibition of CC(C)(C)NC(=O)C(c1ccncc1)N(C(=O)Cn1nnc(-c2ccc(F)cc2)n1)c1ccccc1F (stereo unspecified) for me?
*A* 1.9

*Q* Bench note: what inhibition did Nc1nn2c(-c3ccccc3)cc(=O)[nH]c2c1N=Nc1ccc(Br)cc1 show?
*A* 12.3

*Q* Quick one: inhibition for Cc1ccc(/C(N)=N/OC(=O)c2cccc(F)c2)cc1 ?
*A* 3.9

*Q* Return reported inhibition; argument: CCCCC1(Cc2ccc(OC)c([N+](=O)[O-])c2)C(=O)N(c2ccccc2)N(c2ccccc2)C1=O
*A* 11

*Q* Which inhibition value belongs to COC(=O)CN1C(=O)C2(C(C#N)=C(N)Oc3c2c(C)nn3-c2ccccc2)c2ccccc21 (stereo unspecified) ?
*A* 58.9

*Q* If you can, please state the reported inhibition value of CN(C)S(=O)(=O)c1ccc(C(=O)Nc2cc(=O)n(C)c(=O)n2C)cc1 .
*A* 3.9

*Q* Request the reported inhibition associated with Cc1ccc(OCCn2c(Br)nc3c2c(=O)n(C)c(=O)n3C)cc1
*A* 52.7

*Q* Query: inhibition; subject: COCCn1c(Br)nc2c1c(=O)n(C)c(=O)n2C
*A* 0.3

*Q* Need inhibition, item CCOC(=O)CC(NS(=O)(=O)c1ccc(OC)c(C)c1)c1cccc([N+](=O)[O-])c1 (stereo unspecified)
*A* 12.1

*Q* Suppose we examine the molecule CN(C)CCCN1C(=O)c2cccc3c([N+](=O)[O-])ccc(c23)C1=O ; what inhibition value has been reported?
*A* 29.6

*Q* Fill blank: measured inhibition of the molecule C=CCn1c(COc2ccc(Cl)cc2)nnc1SCC(=O)NCC(=O)OCC is ____.
*A* -3.6

*Q* Look at this molecule and give its reported inhibition. Cc1nn(-c2ccccc2)c2c1C1(C(=O)N(C(C)C)c3ccccc31)C(C#N)=C(N)O2 (stereo unspecified)
*A* 24.1

*Q* // returns reported inhibition for input Cc1ccc(NC(=O)CN2CCN(CCN=CC3=C(O)CC(C)(C)CC3=O)CC2)cc1
*A* -3.9

* * *

# Experimental target: Mannose-6-phosphate isomerase (Homo sapiens)
# Procedure summary: MPI inhibition at elevated mannose 6-phosphate – biochemical, fluorescence intensity, high mannose 6-phosphate, primary screen (AID 1220)
# Condition description: recombinant PMI enzyme, coupled fluorescence intensity; at 20 µM
About 1,300 (0.68%) of roughly 190,000 compounds were called active. No stated cut-off is given here; in the data, active means inhibition above about 50%; inactive means the rest. Shown is part of a subset that was picked to be rich in actives.
Pick one: active, inactive

*Q* Tell me the assay call for Cc1c(Nc2ncnc3nc[nH]c23)c(=O)n(-c2ccccc2)n1C please.
*A* inactive

*Q* # lookup: test call for CCc1nc(Nc2ccc3c(c2)OCO3)c2oc3ccccc3c2n1
*A* inactive

*Q* Dear colleague, could you share the recorded outcome for COc1ccc(C2CC(=O)N3CN(c4ccc(C)c(Cl)c4)CSC3=C2C#N)cc1OC (stereo unspecified) when you have a moment?
*A* inactive

*Q* // outcome(item) with item = CN1CSC2=C(C#N)C(c3cccc(OCc4ccccc4)c3)CC(=O)N2C1 (stereo unspecified)
*A* active

*Q* Would you mind telling me which call this test gave Nc1ccc2c(c1)-c1ccccc1S(=O)(=O)N2 ?
*A* active

*Q* Outcome logged for Cc1ccc2[nH]c(=O)c(-c3nc4cc(C)ccn4c3NCc3ccco3)cc2c1 in this assay:
*A* active

*Q* // param item: COc1cc(C2CC(=O)N3CN(Cc4ccco4)CSC3=C2C#N)ccc1OCc1ccccc1 (stereo unspecified) ; yields the recorded call
*A* active

*Q* Called result for Nc1nc2n(n1)C(=O)CC(c1ccccc1[N+](=O)[O-])N2 (stereo unspecified)
*A* inactive

*Q* Which outcome did this test record for the compound CSc1nc2ccccc2n1CC(=O)N1CCCCC1 ?
*A* inactive

*Q* # outcome recorded in this test, key = CC(C)(C)c1ccc(S(=O)(=O)N2CCCC2C(=O)N2CCOCC2)cc1 (stereo unspecified)
*A* inactive

*Q* Please indicate how the test categorized CN(C(=O)COc1ccccc1)c1nnc(-c2cccnc2)s1 .
*A* inactive

* * *

# Experimental target: Mannose-6-phosphate isomerase (Homo sapiens)
# Procedure summary: MPI inhibition at elevated mannose 6-phosphate – biochemical, fluorescence intensity, high mannose 6-phosphate, primary screen (AID 1220)
# Condition description: recombinant PMI enzyme, coupled fluorescence intensity; at 20 µM; active compounds read high
Among all 190,000 compounds or so, about 1,300 (0.68%) were called active. The entries come from a sample that favours actives as a whole.
Record form. Attribute: inhibition. Fill in for each entry.
Provide the reading as a plain figure in %.

*Q* Param item = Cc1sc2nc(C(C)Nc3ccccc3N3CCOCC3)[nH]c(=O)c2c1C (stereo unspecified) ; retrieve measured inhibition.
*A* 26.7

*Q* Find the recorded inhibition belonging to O=S(=O)(Cc1ccccc1Cl)N1CCCC1 and report it.
*A* 8.9

*Q* Entry Cc1ccc(N2CCN(C(=S)c3ccc(-c4cccc([N+](=O)[O-])c4)o3)CC2)cc1 has what inhibition?
*A* 26.5

*Q* Quick one: inhibition for COc1ccc(NC(C)=O)cc1NC(C)c1nc2sc(C)c(C)c2c(=O)[nH]1 (stereo unspecified) ?
*A* 66.6

*Q* So what does the record say about inhibition for Cc1ccc(NC2c3ncccc3C(=O)N2c2ccccc2C)cc1C (stereo unspecified) ?
*A* -17.7

*Q* What inhibition value was documented for this molecule, Cc1cc(Nc2ccc(F)cc2Cl)n2ncnc2n1 ?
*A* 16.6

Data provenance is PubChem BioAssay AID1220.
